# glycan array binding signal (z-score) per record follows
target_under_test: GlcNAc(b1-3)Gal(b1-4)GlcNAc(b1-6)[GlcNAc(b1-3)Gal(b1-3)]GalNAc
assay_summary: glycan array binding signal (z-score within array); higher = stronger binding
condition_notes: glycan notation: IUPAC condensed, linker removed
This excerpt belongs to a sample that is enriched for the strongest signals.

| binder | glycan array binding signal (z-score) |
| --- | --- |
| DCIR1 (Mus musculus), Q9QZ15 (protein) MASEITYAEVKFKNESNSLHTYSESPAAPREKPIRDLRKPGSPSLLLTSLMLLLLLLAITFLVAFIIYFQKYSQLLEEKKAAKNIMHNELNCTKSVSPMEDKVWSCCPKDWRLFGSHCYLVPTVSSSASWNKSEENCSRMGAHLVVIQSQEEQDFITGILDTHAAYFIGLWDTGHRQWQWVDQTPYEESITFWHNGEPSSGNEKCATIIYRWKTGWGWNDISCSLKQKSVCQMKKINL | -0.947 |
| Mermaid1 (Stilbonema majum) (protein) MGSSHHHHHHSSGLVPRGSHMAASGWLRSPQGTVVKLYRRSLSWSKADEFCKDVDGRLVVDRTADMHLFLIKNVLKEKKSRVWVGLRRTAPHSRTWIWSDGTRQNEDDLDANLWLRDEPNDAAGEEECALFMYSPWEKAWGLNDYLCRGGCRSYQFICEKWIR | -0.841 |
| LFA (Limax flavus) (protein) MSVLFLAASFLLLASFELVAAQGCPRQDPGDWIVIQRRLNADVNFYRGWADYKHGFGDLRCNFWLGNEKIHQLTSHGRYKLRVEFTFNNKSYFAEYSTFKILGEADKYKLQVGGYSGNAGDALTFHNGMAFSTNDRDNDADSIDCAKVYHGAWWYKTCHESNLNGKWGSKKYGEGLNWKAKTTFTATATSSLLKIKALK | -0.285 |
